# Tested on: peptide-pulsed or rVV-infected BCL targets lysed by CTL lines
# Assay type: cell-based, human
# MEASUREMENT PARAMETERS: peptide-pulsed BCL targets
OUTCOME MEASURE: cytolytic activity of peptide-specific CD8 T cell lines

>>> recorded_value("AYQGVQQKW (M. tuberculosis)")
"cytolytic"
>>> recorded_value("RTISEAGQAM (M. tuberculosis)")
"cytolytic"
>>> recorded_value("TATELNNAL (M. tuberculosis)")
"cytolytic"

---

# Test system: peptide-specific CD8 T cell lines and clones
# MEASUREMENT PROTOCOL: ELISPOT assay for IFN-γ with STCLs, CTL lines or clones (free peptide or peptide-pulsed BCL; CD4/CD8 depletion)
# Assay type: cell-based, human
# MEASUREMENT PARAMETERS: immunomagnetic CD4/CD8 depletion prior to IFN-γ ELISPOT
OUTCOME MEASURE: phenotype of peptide-specific T cells

Worked cases, answers included:
>>> recorded_value("LQNLARTI (M. tuberculosis) [G, ESAT-6 position 69–76]")
"CD8"
>>> recorded_value("AYQGVQQKW (M. tuberculosis)")
"CD8 positive"
>>> recorded_value("TATELNNAL (M. tuberculosis)")
"CD8 positive"
>>> recorded_value("AMASTEGNV (M. tuberculosis) [Peptide E, ESAT-6 position 82–90]")
"CD8"

Exercise: Which phenotype of peptide-specific T cells value belongs to RTISEAGQAM (M. tuberculosis) ?
Solution: CD8 positive

Hello, the source for this data is patent US7115361B2, in case you need it.
